- target system: Human factor Xa (Homo sapiens)
- Sequence (P00742 235-488 limits assumed): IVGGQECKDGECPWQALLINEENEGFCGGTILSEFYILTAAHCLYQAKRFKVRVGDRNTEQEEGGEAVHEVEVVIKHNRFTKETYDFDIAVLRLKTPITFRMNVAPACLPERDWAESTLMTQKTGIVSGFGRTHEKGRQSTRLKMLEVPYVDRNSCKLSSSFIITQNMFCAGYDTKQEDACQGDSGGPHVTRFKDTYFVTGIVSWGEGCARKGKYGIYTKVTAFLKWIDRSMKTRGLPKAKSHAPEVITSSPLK
- Sequence (P00742 41-179 limits assumed): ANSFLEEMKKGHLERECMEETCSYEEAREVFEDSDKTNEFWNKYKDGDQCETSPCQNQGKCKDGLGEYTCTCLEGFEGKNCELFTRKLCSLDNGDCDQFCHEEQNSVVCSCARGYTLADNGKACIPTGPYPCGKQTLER
pIC50: −log10 of the molar value.
pIC50: recorded values
measure: pIC50

compound: CC(C)Nc1ncc(-c2cc(N)cc(O)c2)n(CC(=O)NCc2ccc(C(=N)N)cc2)c1=O [Example 54]
target system: Human factor Xa (Homo sapiens)
measure: pIC50
result: < 4.52
--
compound: CCS(=O)(=O)c1cc(N)cc(-c2cnc(NC(C)C)c(=O)n2CC(=O)NCc2ccc(C(=N)N)cc2)c1.O=C(O)C(F)(F)F.O=C(O)C(F)(F)F [Example 232]
target system: Human factor Xa (Homo sapiens)
measure: pIC50
result: < 4.52
--
compound: CC(C)Nc1nc(Cl)c(-c2cc(N)cc(O)c2)n(CC(=O)NCc2ccc(C(=N)N)cc2)c1=O.O=C(O)C(F)(F)F [Example 178]
target system: Human factor Xa (Homo sapiens)
measure: pIC50
result: < 4.52
--
compound: CC(C)Nc1ncc(-c2cc(N)cc(C(F)(F)F)c2)n(CC(=O)NCc2ccc(C(=N)N)cc2)c1=O [Example 18]
target system: Human factor Xa (Homo sapiens)
measure: pIC50
result: < 4.52
--
compound: CCC(CC)C(=O)Nc1cc(N)cc(-c2cnc(NC(C)C)c(=O)n2CC(=O)NCc2ccc(C(=N)N)cc2)c1.O=C(O)C(F)(F)F.O=C(O)C(F)(F)F [Example 134]
target system: Human factor Xa (Homo sapiens)
measure: pIC50
result: < 4.52
--
compound: CC[C@@H](C)Nc1ncc(-c2cc(N)cc(C(=O)N[C@@H](C)CC)c2)n(CC(=O)NCc2ccc(C(=N)N)cc2)c1=O.O=C(O)C(F)(F)F.O=C(O)C(F)(F)F [Example 203]
target system: Human factor Xa (Homo sapiens)
measure: pIC50
result: < 4.52
--
compound: CC(C)Nc1ncc(-c2cc(N)cc(C(=O)NCc3cccc(C(F)(F)F)c3)c2)n(CC(=O)NCc2ccc(C(=N)N)cc2)c1=O.O=C(O)C(F)(F)F.O=C(O)C(F)(F)F [Example 10]
target system: Human factor Xa (Homo sapiens)
measure: pIC50
result: < 4.52
--
compound: CC(C)Nc1ncc(-c2cc(N)cc(C(=O)NCc3ccccc3)c2)n(CC(=O)NCc2ccc(C(=N)N)c(O)c2)c1=O.O=C(O)C(F)(F)F [Example 161]
target system: Human factor Xa (Homo sapiens)
measure: pIC50
result: < 4.52
--
compound: COC(=O)[C@H](NC(=O)c1cc(N)cc(-c2cnc(NC(C)C)c(=O)n2CC(=O)NCc2ccc(C(=N)N)cc2)c1)c1ccccc1 [Example 86]
target system: Human factor Xa (Homo sapiens)
measure: pIC50
result: < 4.52
--
compound: CC[C@H](C)NC(=O)c1cc(N)cc(-c2cnc(NC(C)C)c(=O)n2CC(=O)NCc2ccc(C(=N)N)cc2)c1.O=C(O)C(F)(F)F [Example 127]
target system: Human factor Xa (Homo sapiens)
measure: pIC50
result: < 4.52
--
compound: CC(C)Nc1ncc(-c2cc(N)cc(S(=O)(=O)CC(C)(C)C)c2)n(CC(=O)NCc2ccc(C(=N)N)cc2)c1=O.O=C(O)C(F)(F)F.O=C(O)C(F)(F)F [Example 228]
target system: Human factor Xa (Homo sapiens)
measure: pIC50
result: < 4.52
--
compound: CC(C)CCC(=O)Nc1cc(N)cc(-c2cnc(NC(C)C)c(=O)n2CC(=O)NCc2ccc(C(=N)N)cc2)c1.O=C(O)C(F)(F)F.O=C(O)C(F)(F)F [Example 135]
target system: Human factor Xa (Homo sapiens)
measure: pIC50
result: < 4.52
